The reader will find reported inhibition at 700 µM values listed item by item below.
Target: DENV2 NS2B-NS3 protease (Dengue virus type 2, UniProt P29990)
Sequence (P29990 1346-1475): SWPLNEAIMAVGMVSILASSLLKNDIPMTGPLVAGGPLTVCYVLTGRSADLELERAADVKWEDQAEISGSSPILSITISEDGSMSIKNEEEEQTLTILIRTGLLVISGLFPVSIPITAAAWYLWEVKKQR
Sequence (P29990 1476-1653): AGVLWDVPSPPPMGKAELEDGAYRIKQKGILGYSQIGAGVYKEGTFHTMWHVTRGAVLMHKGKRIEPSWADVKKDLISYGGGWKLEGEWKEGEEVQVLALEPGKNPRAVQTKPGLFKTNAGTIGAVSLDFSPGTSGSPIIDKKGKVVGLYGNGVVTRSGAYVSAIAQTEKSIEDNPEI
Test: DENV2 NS2B-NS3 protease inhibition assay
Type: biochemical
Metric: inhibition at 700 µM (%)

Smiles repr | Unit of measure | Reported measurement
Oc1ccc(-c2nc3cc4nc5ccccc5nc4cc3[nH]2)c(O)c1 | % | 84.7
O=[N+]([O-])c1ccc(-c2nc3cc4nc5ccccc5nc4cc3[nH]2)cc1O | % | 95.5
COc1ccc(-c2nc3cc4nc5ccccc5nc4cc3[nH]2)cc1OC | % | 55.3
Fc1ccccc1-c1nc2cc3nc4ccccc4nc3cc2[nH]1 | % | 78.2
COc1cc(-c2nc3cc4nc5ccccc5nc4cc3[nH]2)cc(OC)c1OC | % | 53.3
